Data provenance: ChEMBL document CHEMBL4020733

Consider the following compounds; for each one, report its pIC50.
# System name: Dipeptidyl peptidase 4 (Rattus norvegicus, UniProt P14740)
# Sequence (P14740 whole entry): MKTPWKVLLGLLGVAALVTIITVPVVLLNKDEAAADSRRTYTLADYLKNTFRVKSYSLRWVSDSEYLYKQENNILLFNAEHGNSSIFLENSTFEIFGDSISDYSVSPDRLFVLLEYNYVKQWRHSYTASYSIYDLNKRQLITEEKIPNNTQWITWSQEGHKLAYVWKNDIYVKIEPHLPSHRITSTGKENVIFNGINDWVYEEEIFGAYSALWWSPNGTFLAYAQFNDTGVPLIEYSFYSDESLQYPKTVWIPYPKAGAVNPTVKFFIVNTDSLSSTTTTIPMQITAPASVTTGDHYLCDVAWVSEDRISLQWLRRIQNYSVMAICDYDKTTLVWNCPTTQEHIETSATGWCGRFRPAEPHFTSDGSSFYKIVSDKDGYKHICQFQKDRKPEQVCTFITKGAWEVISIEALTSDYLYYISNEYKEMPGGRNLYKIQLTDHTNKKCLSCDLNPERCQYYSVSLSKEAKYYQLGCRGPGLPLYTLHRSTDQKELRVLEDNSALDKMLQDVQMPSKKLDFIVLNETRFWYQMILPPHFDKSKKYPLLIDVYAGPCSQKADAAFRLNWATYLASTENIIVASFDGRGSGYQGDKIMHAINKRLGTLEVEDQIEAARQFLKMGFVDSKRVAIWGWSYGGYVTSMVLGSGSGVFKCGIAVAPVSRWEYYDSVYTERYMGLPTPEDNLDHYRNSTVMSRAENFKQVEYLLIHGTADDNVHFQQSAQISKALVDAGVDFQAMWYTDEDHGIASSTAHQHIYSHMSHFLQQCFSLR
# Assay name: Inhibition of Wistar rat plasma DPP4
Lab note: report pIC50 as minus log10 of the concentration in molar units, number only.

Reported pIC50 for CC[C@H](N[C@@H](CCc1ccccc1)C(=O)O)C(=O)N1C[C@@H](NC(=O)C[C@H](N)Cc2cc(F)c(F)cc2F)C[C@H]1C(=O)O : what is it?
6.50

Reported pIC50 for CCC[C@H](N[C@@H](CCc1ccccc1)C(=O)O)C(=O)N1C[C@@H](NC(=O)C[C@H](N)Cc2cc(F)c(F)cc2F)C[C@H]1C(=O)O : what is it?
5.91

Reported pIC50 for CCCC[C@H](N[C@@H](CCc1ccccc1)C(=O)O)C(=O)N1C[C@@H](NC(=O)C[C@H](N)Cc2cc(F)c(F)cc2F)C[C@H]1C(=O)O : what is it?
5.38

Reported pIC50 for C[C@H](N[C@@H](CCc1ccccc1)C(=O)O)C(=O)N1C[C@@H](NC(=O)C[C@H](N)Cc2cc(F)c(F)cc2F)C[C@H]1C(=O)O : what is it?
6.81
